Test: NCI Yeast Anticancer Drug Screen. Data for the sgs1 strain (AID 173);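 further: 0% = growth of vehicle-only control cultures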
Condition: S. cerevisiae sgs1 mutant, at 1.2 µM, hits give high values
This is part of a sample that, as a whole, favours compounds with a hit. Of some 79,000 tested, about 15% had one in any assay. Residues, ends and D or L forms follow the SMILES beside them. *: point of attachment. CH2Cl = ClC*
Observation type: growth inhibition (%)

{"Compound": "C=C(CCCO)[C@@H]1CC[C@@](C)(O)[C@H]1C", "Observation type": "growth inhibition", "Test value": -35}
{"Compound": "Nc1cc(S(N)(=O)=O)ccc1SSc1ccc(S(N)(=O)=O)cc1N", "Observation type": "growth inhibition", "Test value": 2}
{"Compound": "COc1cc([C@@H]2c3cc4c(cc3[C@@H](OC3OC5COC(C)OC5C(O)C3O)[C@H]3COC(=O)[C@H]23)OCO4)cc(OC)c1O (stereo not given in full)", "Observation type": "growth inhibition", "Test value": -3}
{"Compound": "CC(=O)Oc1ccc(N2C(=O)C3c4[nH]c5ccccc5c4C4CCC(C(C)(C)C)CC4C3C2=O)cc1 (stereo not given)", "Observation type": "growth inhibition", "Test value": -7}
{"Compound": "Nc1ccc(S(=O)(=O)Nc2ccc(Nc3c4ccccc4nc4ccccc34)cc2)cc1", "Observation type": "growth inhibition", "Test value": 8}
{"Compound": "CCn1ncc(N=O)c1N", "Observation type": "growth inhibition", "Test value": 5}
{"Compound": "CC(=O)NC(CC(C)C)C(=O)NC(Cc1ccccc1)C(=O)CCl (stereo not drawn) (Ac-Leu-Phe-CH2Cl; configuration not given here)", "Observation type": "growth inhibition", "Test value": -3}
{"Compound": "CCN(CC)CC(O)C1CCC(c2ccccc2)CC1 (stereo not given)", "Observation type": "growth inhibition", "Test value": 3}
{"Compound": "O=C(/C=N/O)Nc1cc(Cl)c(Cl)cc1Cl", "Observation type": "growth inhibition", "Test value": -55}
{"Compound": "N#CSC1CCCCNC1=O (stereo not given)", "Observation type": "growth inhibition", "Test value": 1}
{"Compound": "COC(=O)CSc1nnc(CSc2ccc(Cl)cc2)n1-c1ccccc1", "Observation type": "growth inhibition", "Test value": -2}
{"Compound": "OB(O)c1ccccc1C#Cc1ccccc1B(O)O", "Observation type": "growth inhibition", "Test value": -1}
{"Compound": "CN(C)CC1CCCc2ccccc2C1=O (stereo not given)", "Observation type": "growth inhibition", "Test value": -15}
{"Compound": "O=NN(CCCl)C(=O)NCCCl", "Observation type": "growth inhibition", "Test value": -2}
{"Compound": "CC(=O)N1C(=O)/C(=C\\C(=O)c2ccc([N+](=O)[O-])cc2)c2ccccc21", "Observation type": "growth inhibition", "Test value": -13}

---

Test: NCI Yeast Anticancer Drug Screen. Data for the rad52 strain (AID 147);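 further: 0% = growth of vehicle-treated control cultures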
Condition: S. cerevisiae rad52 mutant growth inhibition; at 1.2 µM; hits give high values
The panel holds about 79,000 compounds, 15% with a hit somewhere; the sample as a whole holds those more often.
Listed below: growth inhibition values for each entry.

{"Compound": "Cc1ccc(Nc2c3c(c(C#N)c4nc5ccccc5n24)CCCC3)cc1", "growth inhibition, %": 6}
{"Compound": "O=C1c2ccccc2CCC1(Br)Br", "growth inhibition, %": 11}
{"Compound": "COc1ccc(/C=C2\\SC(=S)N(C=C3C(=O)NC(=S)NC3=O)C2=O)cc1OC", "growth inhibition, %": 12}
{"Compound": "S=P(N1CC1)(N1CC1)N1CC1", "growth inhibition, %": -1}
{"Compound": "Cc1cc(Cl)ccc1NC(=O)/C(Cl)=C1/Sc2ccccc2NC1=O", "growth inhibition, %": -3}
{"Compound": "CCOC(=O)C1=C(C)NC(C)=C(C(=O)OCC)C1c1ccc(C)cc1", "growth inhibition, %": 27}
{"Compound": "COc1ccc(N)c2c1C(=O)c1ccccc1C2=O", "growth inhibition, %": 6}
{"Compound": "CN[C@@H]1C[C@H]2O[C@@](C)([C@@H]1OC)n1c3ccccc3c3c4c(c5c6ccccc6n2c5c31)C(=O)N[C@@H]4O", "growth inhibition, %": 11}
{"Compound": "COc1ccc(N=N/C(=N\\NC(=O)c2cc(Br)ccc2O)c2ccc(N(CCC#N)CCC#N)cc2OC)cc1", "growth inhibition, %": 29}
{"Compound": "Cc1cccc2c1N=C(C(F)(F)F)CC2=O", "growth inhibition, %": 4}
{"Compound": "O=NN(CCCl)C(=O)NC1CCCCC1", "growth inhibition, %": 6}
{"Compound": "O=C(/C=C/c1cccc(Br)c1)c1ccc(Cl)cc1", "growth inhibition, %": -26}
{"Compound": "BrCc1ccccc1C(c1ccccc1)c1ccccc1", "growth inhibition, %": 9}
{"Compound": "NNC(=S)Nc1cccc2ccccc12", "growth inhibition, %": -10}
{"Compound": "CCN1/C(=C/c2ccc3ccccc3[n+]2CC)C=Cc2ccccc21", "growth inhibition, %": -19}
{"Compound": "O=Cc1coc2ccccc2c1=O", "growth inhibition, %": -9}
{"Compound": "Cc1ccc2c(ccc(/C=C/c3ccc(O)c4ncccc34)[n+]2C)c1", "growth inhibition, %": 17}
{"Compound": "CCC(NC(C)c1ccccc1)C(=O)c1ccc(OCc2ccccc2)c(OCc2ccccc2)c1 (stereo not given)", "growth inhibition, %": 0}
{"Compound": "CC1OC(OC2CCCc3c(O)c4c(c(O)c32)C(=O)c2ccccc2C4=O)CC(N)C1O (stereo not given)", "growth inhibition, %": 3}
{"Compound": "S=C(S)NCC1CCC(CNC(=S)S)CC1 (stereo not given)", "growth inhibition, %": -10}
{"Compound": "COc1ccc(C(C#N)=C2C=CC(=NO)C=C2)cc1", "growth inhibition, %": 11}
{"Compound": "COc1ccc2oc(-c3ccc(Cl)cc3)c(N3CCN(C)CC3)c2c1", "growth inhibition, %": -1}
{"Compound": "Cc1cc(C)c(N2C(=O)CC(Sc3ccccc3N)C2=O)c(C)c1 (stereo not given)", "growth inhibition, %": -27}
{"Compound": "CCCCCCCCCCCc1nc(N)n[nH]1", "growth inhibition, %": -1}
{"Compound": "CCOC(=O)CNC(=O)c1[nH]cnc1/N=N/N(C)C", "growth inhibition, %": -12}
{"Compound": "O=C(N/N=C\\c1c(Cl)cccc1Cl)N/N=C/c1c(Cl)cccc1Cl", "growth inhibition, %": 14}
{"Compound": "CCN(CC)CC(O)C1CCC(c2ccccc2)CC1 (stereo not given)", "growth inhibition, %": 2}
{"Compound": "O=C(CCc1ccccc1)ON1C(=S)C(c2ccccc2)(c2ccccc2)N=C1Sc1ccccc1", "growth inhibition, %": 13}
{"Compound": "COCCCN(Cc1cc(OC)c(OC)c(OC)c1)C(=S)Nc1cccc(Cl)c1", "growth inhibition, %": 20}
{"Compound": "CCCCC(CC)C(=O)Oc1ccc(C(=O)c2ccccc2)c(O)c1 (stereo not given)", "growth inhibition, %": 4}
